Attribution: ChEMBL document CHEMBL1156864

test system: HeLa; experiment: Growth inhibition of human HeLa cells after 48 hrs by MTT assay; format: functional
Measured GI50 by item
Could you give me the number in µM? Just the number is fine.

Reference set, count: 2
cpd_smiles	unit_annotation	value_reported
Cc1ccc(OCC(=O)Nc2cc(B(O)O)ccc2O)cc1	µM	25.7
CC(C)(C)c1ccc(OCC(=O)Nc2cc(B(O)O)ccc2O)cc1	µM	21.3

--- query ---
Name the recorded GI50 of the compound listed here: CCc1ccc(OCC(=O)Nc2cc(B3OC(C)(C)C(C)(C)O3)ccc2O)cc1 8.6

###

Measured IC50 by item
molecular target: Hypoxia-inducible factor 1-alpha (Homo sapiens, UniProt Q16665); experiment: Inhibition of hypoxia-induced HIF1alpha activation in human HeLa cells after 12 hrs by HRE-luciferase reporter gene assay
Sequence (Q16665 whole entry): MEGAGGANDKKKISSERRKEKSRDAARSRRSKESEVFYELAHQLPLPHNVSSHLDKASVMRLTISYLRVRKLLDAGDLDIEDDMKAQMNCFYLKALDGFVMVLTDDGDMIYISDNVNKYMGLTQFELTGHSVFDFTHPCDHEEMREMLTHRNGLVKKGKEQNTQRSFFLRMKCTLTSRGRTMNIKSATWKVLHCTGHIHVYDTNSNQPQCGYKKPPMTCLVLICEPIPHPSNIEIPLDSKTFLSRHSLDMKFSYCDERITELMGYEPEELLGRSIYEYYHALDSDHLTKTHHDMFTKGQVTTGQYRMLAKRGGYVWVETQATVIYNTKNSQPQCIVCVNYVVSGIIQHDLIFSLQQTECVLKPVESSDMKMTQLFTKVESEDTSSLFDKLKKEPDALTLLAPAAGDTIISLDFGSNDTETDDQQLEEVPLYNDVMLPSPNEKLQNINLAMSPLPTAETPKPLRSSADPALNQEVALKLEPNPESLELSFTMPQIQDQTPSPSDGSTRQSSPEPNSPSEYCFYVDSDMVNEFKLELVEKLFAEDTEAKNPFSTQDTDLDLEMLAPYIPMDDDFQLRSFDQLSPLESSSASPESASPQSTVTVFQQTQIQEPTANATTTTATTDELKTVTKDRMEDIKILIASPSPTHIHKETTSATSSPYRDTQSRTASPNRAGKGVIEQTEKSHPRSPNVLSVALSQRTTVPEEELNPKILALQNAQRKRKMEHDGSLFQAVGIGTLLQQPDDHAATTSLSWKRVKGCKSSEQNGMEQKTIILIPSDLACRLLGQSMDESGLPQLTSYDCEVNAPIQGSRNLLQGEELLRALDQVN
Could you give me the number in µM? Just the number is fine.

Reference set, count: 4
cpd_smiles	observed_property	unit_annotation	value_reported
O=C(COc1ccc(C23CC4CC(CC(C4)C2)C3)cc1)Nc1cc(B(O)O)ccc1O	IC50	µM	4.6
CCc1ccc(OCC(=O)Nc2cc(B3OC(C)(C)C(C)(C)O3)ccc2O)cc1	IC50	µM	91.8
CC(C)(C)c1ccc(OCC(=O)Nc2cc(B3OC(C)(C)C(C)(C)O3)ccc2O)cc1	IC50	µM	35.3
CC(C)(C)c1ccc(OCC(=O)Nc2cc(B(O)O)ccc2O)cc1	IC50	µM	40.3

--- query ---
Name the recorded IC50 of the molecule listed here: O=C(COc1ccc(C2CCCCC2)cc1)Nc1cc(B(O)O)ccc1O 84.8

###

Measured GI50 by item
system: HeLa; assay: Growth inhibition of human HeLa cells after 48 hrs by MTT assay; type: functional
Could you give me the number in µM? Just the number is fine.

cpd_smiles	value_reported
O=C(COc1ccc(C23CC4CC(CC(C4)C2)C3)cc1)Nc1cc(C(=O)O)ccc1O	51.6
CC1(C)OB(c2ccc(O)c(NC(=O)COc3ccc(C45CC6CC(CC(C6)C4)C5)cc3)c2)OC1(C)C	16
O=C(COc1ccc(C23CC4CC(CC(C4)C2)C3)cc1)Nc1cc(B(O)O)ccc1O	15.2
O=C(COc1ccc(C2CCCCC2)cc1)Nc1cc(B(O)O)ccc1O	29.2
CC(C)(C)c1ccc(OCC(=O)Nc2cc(B3OC(C)(C)C(C)(C)O3)ccc2O)cc1	12.1

Answer briefly: GI50 recorded on HeLa for O=C(COc1ccc(-c2ccccc2)cc1)Nc1cc(B(O)O)ccc1O 85.9

Answer briefly: GI50 recorded on HeLa for CC1(C)OB(c2ccc(O)c(NC(=O)COc3ccc(C4CCCCC4)cc3)c2)OC1(C)C 13.4

###

Measured IC50 by item
target: Hypoxia-inducible factor 1-alpha (Homo sapiens); assay: Inhibition of hypoxia-induced HIF1alpha activation in human HeLa cells after 12 hrs by HRE-luciferase reporter gene assay
Could you give me the number in µM? Just the number is fine.

Reference set, count: 3
cpd_smiles	IC50 (µM)
O=C(COc1ccc(C23CC4CC(CC(C4)C2)C3)cc1)Nc1cc(C(=O)O)ccc1O	3.1
Cc1ccc(OCC(=O)Nc2cc(B3OC(C)(C)C(C)(C)O3)ccc2O)cc1	90.6
CC1(C)OB(c2ccc(O)c(NC(=O)COc3ccc(C4CCCCC4)cc3)c2)OC1(C)C	70.4

--- query ---
Name the recorded IC50 of the compound listed here: CC1(C)OB(c2ccc(O)c(NC(=O)COc3ccc(C45CC6CC(CC(C6)C4)C5)cc3)c2)OC1(C)C 3.1
